The entries below are paired with their reported Ki.
molecular target: cloned human δ opioid receptor (Homo sapiens)
Sequence (P41143 whole entry): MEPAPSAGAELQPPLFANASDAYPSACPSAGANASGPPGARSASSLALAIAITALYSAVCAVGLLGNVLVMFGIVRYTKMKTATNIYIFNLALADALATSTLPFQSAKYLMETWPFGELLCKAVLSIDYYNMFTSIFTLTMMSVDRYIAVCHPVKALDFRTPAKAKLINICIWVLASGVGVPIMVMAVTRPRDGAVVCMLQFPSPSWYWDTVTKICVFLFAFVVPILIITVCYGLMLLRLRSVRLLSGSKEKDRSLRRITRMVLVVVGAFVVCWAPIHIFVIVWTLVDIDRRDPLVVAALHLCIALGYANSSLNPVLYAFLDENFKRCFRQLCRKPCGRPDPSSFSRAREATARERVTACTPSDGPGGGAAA
measure-name: Ki (nM)

{"compound": "Clc1ccc2c(c1)N=C(N1CCNCC1)c1ccccc1N2 [N-desmethylclozapine]", "system-name": "cloned human δ opioid receptor (Homo sapiens)", "measurement-units": "nM", "numeric-readout": 24}
{"compound": "CN1CCN(C2=Nc3cc(Cl)ccc3Nc3ccccc32)CC1 [Clozapine]", "system-name": "cloned human δ opioid receptor (Homo sapiens)", "measurement-units": "nM", "numeric-readout": 928}

----------
Target: cloned human κ opioid receptor (Homo sapiens)
Sequence (P41145 whole entry): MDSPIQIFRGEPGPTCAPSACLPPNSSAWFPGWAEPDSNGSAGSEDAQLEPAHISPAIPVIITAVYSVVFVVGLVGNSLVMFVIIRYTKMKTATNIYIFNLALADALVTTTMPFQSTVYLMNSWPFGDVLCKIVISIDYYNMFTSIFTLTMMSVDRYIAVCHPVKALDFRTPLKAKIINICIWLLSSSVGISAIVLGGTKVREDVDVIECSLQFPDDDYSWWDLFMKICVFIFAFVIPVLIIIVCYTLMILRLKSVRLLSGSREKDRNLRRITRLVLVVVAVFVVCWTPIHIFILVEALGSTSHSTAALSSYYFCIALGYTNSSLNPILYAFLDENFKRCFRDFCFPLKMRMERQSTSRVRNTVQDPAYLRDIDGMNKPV
Test: Opioid receptor binding assay, [3H]diprenorphine, CHO cell membranes
Conditions: 10 μM; [3H]diprenorphine binding
Experimental: Chinese hamster ovary (CHO) cells are stably transfected with the cloned human μ, κ, or δ opioid receptors. Cells are harvested by scraping them from the culture flask, centrifuging them at 1000×g for 10 min, resuspending them in buffer A and centrifuging again to remove growth medium. The cells are resuspended again in buffer A and homogenized for 30 seconds using a Polytron homogenizer (Brinkmann) at setting 8. The homogenate is centrifuged at 48,000×g for 10 min at 4° C. […]
The entries below are paired with their reported inhibition at 10 µM.
measure-name: inhibition at 10 µM (%)

{"smiles-structure": "CN1CCN(C2=Nc3cc(Cl)ccc3Nc3ccccc32)CC1", "measurement-units": "%", "numeric-readout": 11}
{"smiles-structure": "Clc1ccc2c(c1)N=C(N1CCNCC1)c1ccccc1N2", "measurement-units": "%", "numeric-readout": 64}
{"smiles-structure": "Clc1ccc2c(c1)C(N1CCNCC1)=Nc1ccccc1O2", "measurement-units": "%", "numeric-readout": 25}
{"smiles-structure": "CN1CCN(C2=Nc3ccccc3Oc3ccc(Cl)cc32)CC1", "measurement-units": "%", "numeric-readout": 27}

Origin of the recorded values: patent US6630462B2
